MEASUREMENT TARGET: JAK1 (Homo sapiens, UniProt P23458)
Construct: made in house; host or cells: SF9 insect cells (baculovirus)
Sequence (P23458 852-1154): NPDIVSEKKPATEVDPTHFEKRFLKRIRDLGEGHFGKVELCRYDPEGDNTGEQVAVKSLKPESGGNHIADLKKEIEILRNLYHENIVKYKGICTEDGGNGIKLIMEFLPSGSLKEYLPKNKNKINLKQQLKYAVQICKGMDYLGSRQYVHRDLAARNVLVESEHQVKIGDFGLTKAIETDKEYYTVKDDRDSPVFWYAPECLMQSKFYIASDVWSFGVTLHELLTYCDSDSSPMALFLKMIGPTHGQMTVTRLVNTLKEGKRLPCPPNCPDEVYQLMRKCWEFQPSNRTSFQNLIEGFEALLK
EXPERIMENT NOTES: JAK1 inhibition (Table 4)
Type: biochemical
PARTICULARS: read-out: JAK1 Ki
pKi: −log10 of the molar value.

MOLECULE	pKi
CCN1CCC(n2nnc3cnc4[nH]ccc4c32)C(F)(F)C1 (racemic) [Example 533]	8.04
FC(F)(F)c1nc(CN2CCC(n3cnc4cnc5[nH]ccc5c43)CC2)cs1 [Example 295]	8.98
CCN1CCC(n2c(CCNC(C)=O)nc3cnc4[nH]ccc4c32)C(F)(F)C1 (stereo not shown) [Example 807]	8.42
c1cc2c(ncc3ncn([C@@H]4C[C@H]5CC[C@@H](C4)N5)c32)[nH]1 [Example 93]	7.53

---

MEASUREMENT TARGET: TYK2 (Homo sapiens, UniProt P29597)
Sequence (P29597 873-1187): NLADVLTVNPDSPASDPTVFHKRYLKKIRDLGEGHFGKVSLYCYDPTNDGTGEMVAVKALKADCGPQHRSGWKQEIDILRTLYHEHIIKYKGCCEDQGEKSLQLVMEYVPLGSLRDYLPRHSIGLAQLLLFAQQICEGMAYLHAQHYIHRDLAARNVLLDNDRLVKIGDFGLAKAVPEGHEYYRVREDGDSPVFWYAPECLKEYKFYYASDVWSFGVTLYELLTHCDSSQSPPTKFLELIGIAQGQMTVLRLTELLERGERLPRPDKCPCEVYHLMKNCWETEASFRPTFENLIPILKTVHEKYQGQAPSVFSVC
pKi: −log10 of the molar value. Counter-ions that a name gives are not always drawn.

COMPOUND	pKi
COCCN1CCC(n2c(C(C)O)nc3cnc4[nH]ccc4c32)CC1 (racemic) [Example 539]	6.45
CCn1nccc1CN1CCC(n2c([C@@H](C)O)nc3cnc4[nH]ccc4c32)CC1 [Example 820]	6.78
CNc1nc2cnc3[nH]ccc3c2n1C1CCN(S(C)(=O)=O)CC1 [Example 774]	6.85
CC(C)CC(=O)N[C@H]1CC[C@H](n2cnc3cnc4[nH]ccc4c32)CC1 [Example 215]	7.03
CC1(n2cnc3cnc4[nH]ccc4c32)CCCN(C(=O)CC#N)C1 (racemic) [Example 706]	6.68
FC(F)(F)c1nc2cnc3[nH]ccc3c2n1C1CCNCC1 [Example 254]	5.82
COCCNC1CCC(n2nnc3cnc4[nH]ccc4c32)C1 (racemic) [Example 618, hydrochloride]	5.84
N#CCCN1CCC(n2c(Cc3ccc(C(N)=O)cc3)nc3cnc4[nH]ccc4c32)CC1 [Example 406]	6.19
Cc1nc2cnc3[nH]ccc3c2n1[C@H]1CC[C@H](C(C)(C)O)CC1 [Example 632]	7.86
Cc1nc2cnc3[nH]ccc3c2n1[C@H]1CC[C@H](NC(=O)OCC(F)F)CC1 [Example 607]	7.64
Cn1cc(CN2CCC(n3cnc4cnc5[nH]ccc5c43)CC2)cn1 [Example 68]	5.94
c1cc2c(ncc3ncn(C4CCN(Cc5cocn5)CC4)c32)[nH]1 [Example 90]	7.20
NC1CCCC(n2cnc3cnc4[nH]ccc4c32)C1 (single isomer, unassigned) [Example 365]	6.73
CS(=O)(=O)CCN1CCC(n2cnc3cnc4[nH]ccc4c32)CC1 [Example 59]	7.52
CC(C)OCc1nc2cnc3[nH]ccc3c2n1C1CCN(CCC#N)CC1 [Example 842]	6.04
c1cc2c(ncc3nnn(C4CCNCC4)c32)[nH]1 [Example 231]	5.99
Cn1ccnc1CN1CCC[C@@H](n2cnc3cnc4[nH]ccc4c32)C1 [Example 44]	6.37
CC1CN(Cc2cncnc2)CCC1n1cnc2cnc3[nH]ccc3c21 (racemic) [Example 342]	7.60
